# ASSAY_TEXT: Dissolution test in fasted state simulated intestinal fluid (FaSSIF)
# Type: physicochemical
# STUDY_CONDITIONS: FaSSIF pH 6.5, room temperature
EXPERIMENTAL_ENDPOINT: FaSSIF (µg/mL)

Some solved entries appear below for comparison.
// query If you can, please state the reported FaSSIF value of CC[P@@](C)(=O)c1nc(N)c2[nH]c(=O)n(Cc3ccc(OCCN(C)C)nc3)c2n1 [Example 16-A] .
// result 1799

// query Recorded FaSSIF of CN(C)CCOc1ccc(Cn2c(=O)[nH]c3c(N)nc(P(C)(C)=O)nc32)cn1 [Example 2] , please.
// result 3519

// query // returns reported FaSSIF for input CC[P@@](C)(=O)c1nc(N)c2[nH]c(=O)n(Cc3ccc(NCCN(C)C)nc3)c2n1 [Example 15-A]
// result 3074

a: CC[P@@](C)(=O)c1nc(N)c2[nH]c(=O)n(Cc3ccc(N4CCN(C)CC4)nc3)c2n1 [Example 13-A]
b: CCC[P@](C)(=O)c1nc(N)c2[nH]c(=O)n(Cc3ccc(NCCN(C)C)nc3)c2n1 [Example 18-A]
// query Between a and b , which one shows the smaller FaSSIF number? Refer to your chosen entry by its label in the reply.
// result a

====

# TESTED_SYSTEM: human TLR7 (Homo sapiens)
# ASSAY_TEXT: HEK293-Blue-hTLR7 cells assay (SEAP reporter, NF-κB activation)
# STUDY_CONDITIONS: read-out: HEK293-Blue-h TLR7 (EC50 (μM)); HEK293-Blue-hTLR7 cells, 20 hrs incubation, SEAP reporter
EXPERIMENTAL_ENDPOINT: EC50 (µM)
// units = µM; emit number, no label

// query Looking for the measured EC50 of CCCS(=N)(=O)c1nc(N)c2[nH]c(=O)n(Cc3ccc(Cl)nc3)c2n1 (stereo not shown) [RO14, reference compound] , can you help?
// result 0.017

====

# ASSAY_TEXT: Lyophilisation solubility assay (LYSA), kinetic solubility
# Assay type: physicochemical
# STUDY_CONDITIONS: aqueous buffer; 0.05 M phosphate buffer (pH 6.5), from 10 mM DMSO stock after evaporation
EXPERIMENTAL_ENDPOINT: solubility kinetic

Example results:
// query Returns the measured solubility kinetic for the input compound. Input: CP(C)(=O)c1nc(N)c2[nH]c(=O)n(Cc3ccc(N4CCC(N)C4)nc3)c2n1 (centres unmarked) [Example 3]
// result > 600 µg/mL

// query Looking for the measured solubility kinetic of CC[P@@](C)(=O)c1nc(N)c2[nH]c(=O)n(Cc3ccc(NCCN(C)C)nc3)c2n1 [Example 15-A] , can you help?
// result > 560 µg/mL

// query Can you share its solubility kinetic? I mean this compound: CN(C)CCNc1ccc(Cn2c(=O)[nH]c3c(N)nc(P(C)(C)=O)nc32)cn1 [Example 1]
// result > 540 µg/mL

// query What value of solubility kinetic has been recorded for this entry: CN1CCOC2(CCN(c3ccc(Cn4c(=O)[nH]c5c(N)nc(P(C)(C)=O)nc54)cn3)CC2)C1 [Example 10]
// result > 650 µg/mL

---
// query Dear colleague, I am looking for the recorded solubility kinetic of the following compound: CC[P@@](C)(=O)c1nc(N)c2[nH]c(=O)n(Cc3ccc(N4CCN(C)CC4)nc3)c2n1 [Example 13-A]
// result > 530 µg/mL

// query What value of measured solubility kinetic is listed for CC[P@](C)(=O)c1nc(N)c2[nH]c(=O)n(Cc3ccc(N4CCN(C)CC4)nc3)c2n1 [Example 13-B] ?
// result > 530 µg/mL

// query Suppose we examine the compound CCN(C)CCNc1ccc(Cn2c(=O)[nH]c3c(N)nc(P(C)(C)=O)nc32)cn1 [Example 12] ; what solubility kinetic value has been reported?
// result > 560 µg/mL

// query Data request, read-out solubility kinetic, for CCC[P@](C)(=O)c1nc(N)c2[nH]c(=O)n(Cc3ccc(NCCN(C)C)nc3)c2n1 [Example 18-A]
// result > 580 µg/mL

// query I have this compound here, CCC[P@@](C)(=O)c1nc(N)c2[nH]c(=O)n(Cc3ccc(NCCN(C)C)nc3)c2n1 [Example 18-B] , and I need its recorded solubility kinetic.
// result > 580 µg/mL

// query State the recorded solubility kinetic for this entry: CP(C)(=O)c1nc(N)c2[nH]c(=O)n(Cc3ccc(NCCN4CCCC4)nc3)c2n1 [Example 7]
// result > 540 µg/mL

// query // returns reported solubility kinetic for input CP(C)(=O)c1nc(N)c2[nH]c(=O)n(Cc3ccc(N4CC5CCC4CN5)nc3)c2n1 (centres unmarked) [Example 5]
// result > 570 µg/mL

// query Given the compound CC[P@@](C)(=O)c1nc(N)c2[nH]c(=O)n(Cc3ccc(NCCNC)nc3)c2n1 [Example 17] , what is its reported solubility kinetic?
// result > 540 µg/mL

// query What measured solubility kinetic goes with CP(C)(=O)c1nc(N)c2[nH]c(=O)n(Cc3ccc(NC4CCOCC4)nc3)c2n1 [Example 8] ?
// result > 520 µg/mL

// query // solubility kinetic lookup, key: CC[P@](C)(=O)c1nc(N)c2[nH]c(=O)n(Cc3ccc(NCCN(C)C)nc3)c2n1 [Example 15-B]
// result > 560 µg/mL

====

# TESTED_SYSTEM: human TLR7 (Homo sapiens)
# Sequence (Q9NYK1 27-1049): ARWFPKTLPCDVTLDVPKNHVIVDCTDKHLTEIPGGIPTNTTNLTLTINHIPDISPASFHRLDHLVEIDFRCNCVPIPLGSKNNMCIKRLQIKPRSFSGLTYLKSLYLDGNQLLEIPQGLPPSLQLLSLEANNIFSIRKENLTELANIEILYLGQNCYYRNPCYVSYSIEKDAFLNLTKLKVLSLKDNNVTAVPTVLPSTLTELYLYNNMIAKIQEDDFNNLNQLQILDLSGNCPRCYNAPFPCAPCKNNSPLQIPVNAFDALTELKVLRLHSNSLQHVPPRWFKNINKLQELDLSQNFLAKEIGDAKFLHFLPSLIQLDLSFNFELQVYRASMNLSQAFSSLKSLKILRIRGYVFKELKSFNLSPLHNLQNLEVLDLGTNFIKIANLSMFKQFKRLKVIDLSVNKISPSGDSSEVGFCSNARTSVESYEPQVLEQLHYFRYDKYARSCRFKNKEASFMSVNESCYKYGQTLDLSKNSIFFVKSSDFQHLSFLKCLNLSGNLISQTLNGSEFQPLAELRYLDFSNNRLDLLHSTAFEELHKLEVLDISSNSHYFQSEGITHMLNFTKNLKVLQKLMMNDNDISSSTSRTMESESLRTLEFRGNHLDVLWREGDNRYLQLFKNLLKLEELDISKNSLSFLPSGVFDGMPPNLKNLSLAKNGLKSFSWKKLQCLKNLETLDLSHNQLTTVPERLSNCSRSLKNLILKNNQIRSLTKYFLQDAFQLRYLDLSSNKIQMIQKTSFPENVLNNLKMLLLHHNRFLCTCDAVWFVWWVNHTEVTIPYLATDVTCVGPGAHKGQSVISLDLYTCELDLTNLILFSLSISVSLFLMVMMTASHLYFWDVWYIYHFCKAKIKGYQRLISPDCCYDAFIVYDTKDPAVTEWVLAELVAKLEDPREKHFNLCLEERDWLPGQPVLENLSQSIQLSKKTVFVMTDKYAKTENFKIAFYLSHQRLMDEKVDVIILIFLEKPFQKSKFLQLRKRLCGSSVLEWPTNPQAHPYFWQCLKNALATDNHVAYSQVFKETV
# ASSAY_TEXT: HEK293-Blue-hTLR7 cells assay (SEAP reporter, NF-κB activation)
pEC50: −log10 of the molar value.
EXPERIMENTAL_ENDPOINT: pEC50

// query Fill in the blank: the reported pEC50 of CN(C)CC1CCN(c2ccc(Cn3c(=O)[nH]c4c(N)nc(P(C)(C)=O)nc43)cn2)C1 (stereo not shown) is ____.
// result 7.68

// query Any idea what pEC50 was measured for CN1CCC(Nc2ccc(Cn3c(=O)[nH]c4c(N)nc(P(C)(C)=O)nc43)cn2)C1 (stereo not shown) ?
// result 7.55

// query I have this compound here, CP(C)(=O)c1nc(N)c2[nH]c(=O)n(Cc3ccc(N4CC5CNCC5C4)nc3)c2n1 (stereo not shown) , and I need its recorded pEC50.
// result 7.57

// query pEC50 value for entry CN(C)CCOc1ccc(Cn2c(=O)[nH]c3c(N)nc(P(C)(C)=O)nc32)cn1
// result 7.72

====

# ASSAY_TEXT: Dissolution test in fasted state simulated intestinal fluid (FaSSIF)
# Assay type: physicochemical
# STUDY_CONDITIONS: FaSSIF pH 6.5, room temperature
EXPERIMENTAL_ENDPOINT: FaSSIF (µg/mL)

// query Give the measured FaSSIF of CCCS(=N)(=O)c1nc(N)c2[nH]c(=O)n(Cc3ccc(Cl)nc3)c2n1 (centres unmarked) [RO14, reference compound] .
// result 14

P: CN(C)CCNc1ccc(Cn2c(=O)[nH]c3c(N)nc(P(C)(C)=O)nc32)cn1 [Example 1]
Q: CC[P@](C)(=O)c1nc(N)c2[nH]c(=O)n(Cc3ccc(OCCN(C)C)nc3)c2n1 [Example 16-B]
// query Please indicate which entry, P or Q , has the lower recorded FaSSIF value. // caller expects the label of the chosen entry
// result Q
(Q: 784 µg/mL, P: 2527 µg/mL)
